Field: Plant response rating. Provide a value for each of the compounds that follow.
Tested on: waterhemp (common waterhemp, Amaranthus rudis)
Assay: Test C pre-/postemergence greenhouse herbicide test
Assay type: in vivo
Conditions: Waterhemp; Preemergence; 62 g ai/ha
Answers are plain numbers.

Consider the reported Plant response rating for these compounds:
INSERT INTO assay_data (compound, quantity_measured, measured) VALUES
  ('CCOc1cc(=O)n(-c2ccc(F)cc2)nc1C(O)c1ccnc(C(F)(F)F)c1 (stereo not drawn)', 'Plant response rating', 100),
  ('COc1cc(=O)n(-c2ccc(C(F)(F)F)cc2)nc1Cc1ccnc(C(F)(F)F)c1', 'Plant response rating', 100),
  ('Cc1cc(=O)n(-c2ccc(C(F)(F)F)cc2)nc1Cc1ccnc(C(F)(F)F)c1', 'Plant response rating', 100),
  ('CCOc1cc(=O)n(-c2ccc(F)cc2)nc1Cc1ccnc(C(F)(F)F)c1', 'Plant response rating', 100),
  ('Cc1cc(=O)n(-c2ccc(F)cc2)nc1Cc1ccnc(C(F)(F)F)c1', 'Plant response rating', 100);

Proceed to the following item.
Asked: Look at this compound and give its reported Plant response rating. `COc1cc(=O)n(-c2ccc(F)cc2)nc1Cc1ccnc(C(F)(F)F)c1`
Given back: 100

Numbers sourced from patent US10202361B2.
